Where these numbers come from: patent US10221129B2

CC50 at 4 days by entry:
assay: Compound cytotoxicity, XTT-based colorimetric assay; assay type: cell-based; settings: human, uninfected MT2 cells, day 4, XTT

- entry smiles: "CN(C(=O)[C@H](Cc1cc(F)cc(F)c1)NC(=O)NS(=O)(=O)N1CCc2cccnc21)c1ccc2c(c1)OCCO2"
  unit tag: "µM"
  relation: "="
  CC50 at 4 days: 53.4
- entry smiles: "COc1ccc(N(C)C(=O)[C@H](Cc2ccccc2)NC(=O)NS(=O)(=O)Nc2ccccc2F)cc1"
  unit tag: "µM"
  relation: ">"
  CC50 at 4 days: 100
- entry smiles: "Cc1ccc(N(C)C(=O)[C@H](Cc2cc(F)cc(F)c2)NC(=O)NS(=O)(=O)N2CCc3cccnc32)cc1Cl"
  unit tag: "µM"
  relation: "="
  CC50 at 4 days: 60.7
- entry smiles: "CN(C(=O)[C@H](Cc1cc(F)cc(F)c1)NC(=O)NS(=O)(=O)N1CC(F)(F)C1)c1ccc2scnc2c1"
  unit tag: "µM"
  relation: ">"
  CC50 at 4 days: 100
- entry smiles: "COc1ccc(N(C)C(=O)[C@H](Cc2ccccc2)NC(=O)NS(=O)(=O)Nc2ccc(S(=O)(=O)N3CCCC3)cc2)cc1"
  unit tag: "µM"
  relation: ">"
  CC50 at 4 days: 100
- entry smiles: "CN(C(=O)[C@H](Cc1cc(F)cc(F)c1)NC(=O)NS(N)(=O)=O)c1ccc2scnc2c1"
  unit tag: "µM"
  relation: "="
  CC50 at 4 days: 79.6
- entry smiles: "COc1ccc(N(C)C(=O)[C@H](Cc2cc(F)cc(F)c2)NC(=O)NS(=O)(=O)N2CCC[C@@H]2C(=O)N(C)C)cc1"
  unit tag: "µM"
  relation: ">"
  CC50 at 4 days: 100

----------
CC50 at 4 days by entry:
assay: Compound cytotoxicity, XTT-based colorimetric assay; assay type: cell-based; details: human, uninfected MT2 cells, day 4, XTT
readout name: CC50 at 4 days

- molecule: "COc1ccc(N(C)C(=O)[C@H](Cc2ccccc2)NC(=O)NS(=O)(=O)Nc2ccc(S(=O)(=O)N3CCOCC3)cc2)cc1 [CA-44]"
  assay result: "> 100 µM"
- molecule: "COc1ccc(N(C)C(=O)[C@H](Cc2ccccc2)NC(=O)NS(=O)(=O)N2Cc3ccccc3S2(=O)=O)cc1 [JB-79]"
  assay result: "> 100 µM"
- molecule: "COc1ccc(N(C)C(=O)[C@H](Cc2ccccc2)NC(=O)NS(=O)(=O)N2CCc3ccccc32)cc1 [JB-1]"
  assay result: "> 100 µM"
- molecule: "COc1ccc(N(C)C(=O)[C@H](Cc2ccccc2)NC(=O)NS(=O)(=O)NCc2ccc3nc(C)[nH]c3c2)cc1 [JB-54]"
  assay result: "> 100 µM"
- molecule: "COc1ccc(N(C)C(=O)[C@H](Cc2ccccc2)NC(=O)NS(=O)(=O)Nc2cccc(-c3cnco3)c2)cc1 [CA-27]"
  assay result: "> 100 µM"
- molecule: "COC1CN(S(=O)(=O)NC(=O)N[C@@H](Cc2cc(F)cc(F)c2)C(=O)N(C)c2ccc3scnc3c2)C1 [CA-128]"
  assay result: "> 100 µM"
- molecule: "COc1ccc(N(C)C(=O)[C@H](Cc2ccccc2)NC(=O)NS(=O)(=O)NC(C)c2ncnn2C)cc1 (mixture of isomers) [JB-68]"
  assay result: "> 100 µM"
